Every entry's value here was drawn from patent US20250250357A1.

Reported OD450 by item:
# ASSAYED_TARGET: T1, human MSLN-R2-his protein (human, UniProt Q13421 391-486)
# T1 construct: it is put last here; also called human MSLN-R2 protein; hMSLN-R2-his; not shown: His tag
# T1 sequence (Q13421 other isoform, or with tags, fused parts or gaps): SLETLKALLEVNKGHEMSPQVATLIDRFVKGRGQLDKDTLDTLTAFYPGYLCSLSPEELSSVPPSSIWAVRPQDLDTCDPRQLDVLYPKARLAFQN
# PROTOCOL_SUMMARY: ELISA on coated antigen, antibody 0.0002 nM
I only need the number, in OD, no unit after it.

INSERT INTO results (binder, measurement_name, measure_unit, number) VALUES
  ('S009-F7.25.19 (antibody, human IgG1, kappa, V domains shown, Human-murine chimeric antibody, human IgG1 heavy and kappa light constant regions) VH: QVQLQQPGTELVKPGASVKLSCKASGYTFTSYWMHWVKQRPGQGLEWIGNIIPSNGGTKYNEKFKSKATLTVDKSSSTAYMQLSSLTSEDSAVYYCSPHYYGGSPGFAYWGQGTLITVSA VL: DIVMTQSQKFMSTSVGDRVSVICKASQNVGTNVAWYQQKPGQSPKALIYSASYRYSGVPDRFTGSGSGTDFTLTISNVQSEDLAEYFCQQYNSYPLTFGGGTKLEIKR', 'OD450', 'OD', 0.05);

Exercise: Indicate the recorded OD450 value for this binder: S009-F7.33.24 (antibody, human IgG1, kappa, V domains shown, Human-murine chimeric antibody, human IgG1 heavy and kappa light constant regions) VH: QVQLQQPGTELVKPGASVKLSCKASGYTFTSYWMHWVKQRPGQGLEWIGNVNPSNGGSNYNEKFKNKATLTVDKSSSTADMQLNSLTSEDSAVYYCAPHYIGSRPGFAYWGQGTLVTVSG VL: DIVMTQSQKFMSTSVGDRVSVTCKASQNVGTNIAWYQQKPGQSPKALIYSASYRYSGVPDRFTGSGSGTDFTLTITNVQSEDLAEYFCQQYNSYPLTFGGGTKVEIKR
Solution: 0.06
